Parameter IC50, tested on human Fibroblast activation protein alpha (hFAP) (Homo sapiens (Human), UniProt Q12884), listed per item.
Sequence (Q12884 38-760): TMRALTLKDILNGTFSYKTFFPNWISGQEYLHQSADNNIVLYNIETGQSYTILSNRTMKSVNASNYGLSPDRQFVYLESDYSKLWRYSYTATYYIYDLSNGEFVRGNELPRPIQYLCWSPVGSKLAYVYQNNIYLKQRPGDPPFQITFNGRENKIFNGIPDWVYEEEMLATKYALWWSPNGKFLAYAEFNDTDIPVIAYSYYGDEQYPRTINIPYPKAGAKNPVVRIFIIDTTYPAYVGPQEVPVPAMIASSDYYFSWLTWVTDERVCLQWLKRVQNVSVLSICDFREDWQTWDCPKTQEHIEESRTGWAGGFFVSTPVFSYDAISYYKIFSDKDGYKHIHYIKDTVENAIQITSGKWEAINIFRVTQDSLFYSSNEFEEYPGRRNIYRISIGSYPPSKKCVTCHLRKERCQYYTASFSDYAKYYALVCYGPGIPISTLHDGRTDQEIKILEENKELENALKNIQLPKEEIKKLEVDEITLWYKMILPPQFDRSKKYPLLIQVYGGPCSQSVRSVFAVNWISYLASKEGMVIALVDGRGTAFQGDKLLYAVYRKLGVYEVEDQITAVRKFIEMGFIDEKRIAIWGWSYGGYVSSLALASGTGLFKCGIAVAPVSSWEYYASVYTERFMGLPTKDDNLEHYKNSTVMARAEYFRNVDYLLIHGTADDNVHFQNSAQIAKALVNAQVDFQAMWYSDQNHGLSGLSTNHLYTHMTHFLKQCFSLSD
Give bare numbers, in nM.

• N#C[C@@H]1C[C@@H]2C[C@@H]2N1C(=O)CNC(=O)c1ccnc2cc(C(F)(F)F)ccc12 [Example 23] = 0.33

// each compound listed below needs its IC50
1. CC(OC(F)(F)F)c1ccc2c(C(=O)NCC(=O)N3[C@H](C#N)C[C@@H]4C[C@@H]43)ccnc2c1 (some centres unmarked) [Example 30]
2. CC1(c2ccc3nccc(C(=O)NCC(=O)N4[C@H](C#N)C[C@@H]5C[C@@H]54)c3c2)CC1 [Example 43]
3. Cc1cc(C(=O)NCC(=O)N2[C@H](C#N)C[C@@H]3C[C@@H]32)c2ccc(F)cc2n1 [Example 8]
4. Cc1cc(C(=O)NCC(=O)N2[C@H](C#N)C[C@@H]3C[C@@H]32)c2cc(Br)ccc2n1 [Example 6]

1. 0.41
2. 0.56
3. 20
4. 18

// each compound listed below needs its IC50
1. CCOC1(c2ccc3nccc(C(=O)NCC(=O)N4[C@H](C#N)C[C@@H]5C[C@@H]54)c3c2)CC1 [Example 45]
2. N#C[C@@H]1C[C@@H]2C[C@@H]2N1C(=O)CNC(=O)c1ccnc2cc(C3(C#N)CC3)ccc12 [Example 40]
3. CC(C)Oc1ccc2nccc(C(=O)NCC(=O)N3[C@H](C#N)C[C@@H]4C[C@@H]43)c2c1 [Example 34]

1: 0.25; 2: 0.15; 3: 1.2
